- measurement.notes: Binding of fluorescein-labeled peptides to hydroxyapatite nanocrystals (Langmuir isotherm)
- conditions.used: fluorescein-labeled peptide 0-100 μM, 0.3 mg hydroxyapatite, ten minutes, Langmuir fit
No end group written: not given here.
Some substances, each annotated with its measured KA, affinity constant of the peptide for the hydroxyapatite surface.

8DAA: eight repeat peptide lacking hydroxyl groups at the second and third positions, SEQ. ID NO. 22 (DAADAADAADAADAADAADAADAA; variant DSS eight repeat peptide lacking hydroxyl group at seond and third positions, 8DAA); 300,000 M^−1

**Q:** Any idea what KA, affinity constant of the peptide for the hydroxyapatite surface was measured for 4DSPS: partially phosphorylated four repeat DSS peptide, SEQ ID NO:25 (DSSDSSDSSDSS; also: partially phosphorylated, sites not given here) ?
**A:** 83,000 M^−1

**Q:** Next record, please: 4ETT: four repeat peptide containing more sterically hindered hydroxyl groups at second and third positions, SEQ. ID NO. 19 (ETTETTETTETT; variant DSS four repeat peptide containing more sterically hindered hydroxyl groups at second and third positions, 4ETT)
**A:** 61,000 M^−1

====

- measurement.notes: Binding of fluorescein-labeled peptides to hydroxyapatite nanocrystals (Langmuir isotherm)
- conditions.used: fluorescein-labeled peptide 0-100 μM, 0.3 mg hydroxyapatite, ten minutes, Langmuir fit
endpoint.name: KA, affinity constant of the peptide for the hydroxyapatite surface

4DSS: peptide containing four Asp-Ser-Ser (DSS) repeats, SEQ ID NO:13 (DSSDSSDSSDSS; calcium binding peptide containing four DSS repeats, 4DSS, (DSS)-4); 94,000 M^−1

Okay, next one:
**Q:** Any idea what KA, affinity constant of the peptide for the hydroxyapatite surface was measured for 8NAA: eight repeat peptide lacking hydroxyl groups at the second and third positions, SEQ. ID NO. 23 (NAANAANAANAANAANAANAANAA; variant DSS eight repeat peptide lacking hydroxyl group at seond and third positions, 8NAA) ?
**A:** 20,000 M^−1

====

- measurement.notes: Binding of fluorescein-labeled peptides to hydroxyapatite nanocrystals (Langmuir isotherm)
- conditions.used: fluorescein-labeled peptide 0-100 μM, 0.3 mg hydroxyapatite, ten minutes, Langmuir fit
endpoint.name: KA, affinity constant of the peptide for the hydroxyapatite surface

Known results for substances:
4NSS: four repeat peptide lacking a charged group at the first position, SEQ. ID NO. 20 (NSSNSSNSSNSS; variant DSS four repeat peptide lacking negatively charged group at first position, 4NSS); 41,000 M^−1
4NTT: four repeat peptide containing more sterically hindered hydroxyl groups at second and third positions, SEQ. ID NO. 18 (NTTNTTNTTNTT; variant DSS four repeat peptide containing more sterically hindered hydroxyl groups at second and third positions, 4NTT); 18,000 M^−1

**Q:** Any idea what KA, affinity constant of the peptide for the hydroxyapatite surface was measured for 4ESS: four repeat peptide containing a longer sidechain at the first position, SEQ. ID NO. 16 (ESSESSESSESS; variant DSS four repeat peptide containing longer sidechain at first position, 4ESS) ?
**A:** 81,000 M^−1

====

Some substances, each annotated with its measured KA, affinity constant of the peptide for the hydroxyapatite surface.
- measurement.notes: Binding of fluorescein-labeled peptides to hydroxyapatite nanocrystals (Langmuir isotherm)
- conditions.used: fluorescein-labeled peptide 0-100 μM, 0.3 mg hydroxyapatite, ten minutes, Langmuir fit

8DSS: peptide containing eight Asp-Ser-Ser (DSS) repeats, SEQ ID NO:15 (DSSDSSDSSDSSDSSDSSDSSDSS; calcium binding peptide containing eight DSS repeats, 8DSS); 300,000 M^−1
2DSS: peptide containing two Asp-Ser-Ser (DSS) repeats, SEQ ID NO:12 (DSSDSS; calcium binding peptide containing two DSS repeats, 2DSS); 57,000 M^−1
4DTT: four repeat peptide containing more sterically hindered hydroxyl groups at second and third positions, SEQ. ID NO. 17 (DTTDTTDTTDTT; variant DSS four repeat peptide containing more sterically hindered hydroxyl groups at second and third positions, 4DTT); 161,000 M^−1

Okay, next one:
**Q:** Any idea what KA, affinity constant of the peptide for the hydroxyapatite surface was measured for 8ASS: eight repeat peptide lacking a charged group at the first position, SEQ. ID NO. 21 (ASSASSASSASSASSASSASSASS; variant DSS eight repeat peptide lacking negatively charged group at first position, 8ASS) ?
**A:** 170,000 M^−1
